Reported values of pIC50 for individual entries
- TARGET_ENTITY: GSK3α (GST-full length GSK3α) (Homo sapiens (Human))
- Sequence (P49840 whole entry): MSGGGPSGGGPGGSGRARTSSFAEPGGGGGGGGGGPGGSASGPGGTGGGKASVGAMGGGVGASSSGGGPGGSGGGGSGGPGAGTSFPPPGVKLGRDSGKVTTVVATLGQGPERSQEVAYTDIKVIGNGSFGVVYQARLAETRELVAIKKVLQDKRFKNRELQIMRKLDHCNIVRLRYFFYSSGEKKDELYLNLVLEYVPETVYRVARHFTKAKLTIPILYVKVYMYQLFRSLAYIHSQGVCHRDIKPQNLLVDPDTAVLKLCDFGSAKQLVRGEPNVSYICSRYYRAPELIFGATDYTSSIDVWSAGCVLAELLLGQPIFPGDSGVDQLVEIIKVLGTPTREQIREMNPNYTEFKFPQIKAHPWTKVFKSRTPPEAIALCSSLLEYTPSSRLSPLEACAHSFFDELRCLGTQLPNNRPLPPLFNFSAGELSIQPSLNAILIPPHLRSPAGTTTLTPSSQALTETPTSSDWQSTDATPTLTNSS
- ASSAY_REMARKS: GSK3α TR-FRET kinase assay
- Assay type: biochemical
- EXPERIMENTAL_CONDITIONS: 1 nM GSK3α, 4 μM ATP, 30 minute preincubation; geometric mean; read-out: GSK3-A TR-FRET BIOCHEMICAL (TR-FRET); GMean; IC50
pIC50: −log10 of the molar value.
METRIC_NAME: pIC50

[
  {
    "MOLECULE": "CC[C@]1(c2ccccc2)C2=C(CC(C)(C)CC2=O)Nc2n[nH]c(Br)c21",
    "OBSERVED_MEASUREMENT": "6.00 to 7.00"
  },
  {
    "MOLECULE": "CCC1(c2cccc(C3CCOCC3)c2)C2=C(CC(C)(C)CC2=O)Nc2n[nH]cc21 (stereo not shown)",
    "OBSERVED_MEASUREMENT": "≥ 7.00"
  },
  {
    "MOLECULE": "CCC1(c2cccc(-c3ccncc3C)c2)C2=C(CC(C)(C)NC2=O)Nc2n[nH]cc21 (stereo not shown)",
    "OBSERVED_MEASUREMENT": "≥ 7.00"
  },
  {
    "MOLECULE": "CC[C@]1(c2cccc(-c3cnn(C)c3)c2)C2=C(CC(C)(C)NC2=O)Nc2n[nH]c(C(F)(F)F)c21",
    "OBSERVED_MEASUREMENT": "≥ 7.00"
  },
  {
    "MOLECULE": "CCC1(c2cccc(-c3ccnc(N4CCOCC4)c3)c2)C2=C(CC(C)(C)NC2=O)Nc2n[nH]cc21 (stereo not shown)",
    "OBSERVED_MEASUREMENT": "≥ 7.00"
  },
  {
    "MOLECULE": "CCC1(c2cccc(-c3cn(C)nc3C)c2)C2=C(CC(C)(C)N(C)C2=O)Nc2n[nH]cc21 (stereo not shown) [Compound 949005]",
    "OBSERVED_MEASUREMENT": "≥ 7.00"
  },
  {
    "MOLECULE": "CC[C@@]1(c2cccc(-c3c(C)cncc3C)c2)C2=C(CC(C)(C)NC2=O)Nc2n[nH]cc21",
    "OBSERVED_MEASUREMENT": "< 5.30"
  }
]
